# experimentalDetails: Metabolic stability in human liver microsomes assessed as elimination rate constant at 1 uM incubated upto 60 mins in presence of NADPH by LC-MS/MS analysis
# Assay type: ADME, Microsome
valueType: k el at 1 h, 1 µM (s⁻¹)
The reply should contain only the number, in s⁻¹.

Asked: Using known records, supply k el at 1 h, 1 µM for CCN(CC)C/C=C/C(=O)Nc1cc2c(Nc3ccc(F)c(Cl)c3)ncnc2cc1OCc1cn(CCCCCCCC(=O)N[C@H](C(=O)N2C[C@H](O)C[C@H]2C(=O)N[C@H](C)c2ccc(-c3scnc3C)cc2)C(C)(C)C)nn1
Given back: 0.0007

----------
# experimentalDetails: Tmax in SPF ICR mouse at 5 mg/kg,ip measured upto 24 hrs by LC-MS/MS analysis
# Type: ADME, organism-based
# experimentalContext: in vivo
valueType: Tmax (h)
Please reply with the bare figure in h and do not write the unit itself.

Asked: Please give measured Tmax of the following entry: CCN(CC)C/C=C/C(=O)Nc1cc2c(Nc3ccc(F)c(Cl)c3)ncnc2cc1OCc1cn(CCCCCCCC(=O)N[C@H](C(=O)N2C[C@H](O)C[C@H]2C(=O)N[C@H](C)c2ccc(-c3scnc3C)cc2)C(C)(C)C)nn1
Given back: 2

----------
# experimentalDetails: Metabolic stability in dog liver microsomes assessed as half-life at 1 uM incubated upto 60 mins in presence of NADPH by LC-MS/MS analysis
# Assay type: ADME, Canis lupus familiaris, Microsome
valueType: half-life at 1 µM (h)
Kindly answer with a numeric value in h, unit omitted.

Asked: Provide half-life at 1 µM value for the following molecule: CCN(CC)C/C=C/C(=O)Nc1cc2c(Nc3ccc(F)c(Cl)c3)ncnc2cc1OCc1cn(CCCCCCCC(=O)N[C@H](C(=O)N2C[C@H](O)C[C@H]2C(=O)N[C@H](C)c2ccc(-c3scnc3C)cc2)C(C)(C)C)nn1
Given back: 1.3

----------
# experimentalDetails: Half life in SPF ICR mouse at 2 mg/kg,iv measured upto 24 hrs by LC-MS/MS analysis
# Type: ADME, organism-based
# experimentalContext: in vivo
valueType: half-life (h)
# output: bare number, implied unit h

Asked: Report half-life for CCN(CC)C/C=C/C(=O)Nc1cc2c(Nc3ccc(F)c(Cl)c3)ncnc2cc1OCc1cn(CCCCCCCC(=O)N[C@H](C(=O)N2C[C@H](O)C[C@H]2C(=O)N[C@H](C)c2ccc(-c3scnc3C)cc2)C(C)(C)C)nn1
Given back: 1.67

----------
Examples of compounds with documented IC50 follow.
# Test system: A549
# experimentalDetails: Antiproliferative activity against human A549 cells harboring EGFR wild type assessed as inhibition of cell growth incubated for 48 to 72 hrs by CCK-8 assay
# Format: functional, cell-based

Worked cases, IC50 given:
Cc1ncsc1-c1ccc(CNC(=O)[C@@H]2C[C@@H](O)CN2C(=O)[C@@H](NC(=O)CCCCn2cc(CCCCCOc3cc4ncnc(Nc5ccc(F)c(Cl)c5)c4cc3NC(=O)/C=C/CN3CCCCC3)nn2)C(C)(C)C)cc1 | > 20 µM
COc1cc2ncnc(Nc3ccc(F)c(Cl)c3)c2cc1NC(=O)/C=C/CN1CCCCC1 [DACOMITINIB ANHYDROUS] | 0.49 µM

Now look at this one.
Asked: Fill in reported IC50 for this entry: Cc1ncsc1-c1ccc(CNC(=O)[C@@H]2C[C@@H](O)CN2C(=O)[C@@H](NC(=O)CCCCCCCCCCn2cc(COc3cc4ncnc(Nc5ccc(F)c(Cl)c5)c4cc3NC(=O)/C=C/CN3CCN(C)CC3)nn2)C(C)(C)C)cc1
Given back: > 20 µM
